test: Toxicity in Kunming mouse assessed as increase in survival rate at 60 mg/kg, IG measured after 27 days relative to control; type: organism-based; conditions: in vivo, po, time 27 day
READOUT NAME: survival at 648 h (%)
State just the number; it will be interpreted in %.

Per the record, CC(C)[C@H](NC(=O)CN)C(=O)O[C@H]1CC[C@@]2(C)C(=CC[C@@H]3[C@@H]2CC[C@]2(C)C(c4cccnc4)=CC[C@@H]32)C1 has survival at 648 h of 100

----------
test system: B16; experiment: Antiproliferative activity against mouse B16 cells measured after 48 hrs by MTT assay; type: functional, cell-based; settings: B16, 48 h
Property: pIC50; scope: individual molecules
pIC50 here: minus log base 10 of the concentration, concentration in moles per litre.

Below, 2 molecules whose answers are already recorded.
| MOLECULE | pIC50 |
| --- | --- |
| C[C@]12CC[C@H](O)CC1=CC[C@@H]1[C@@H]2CC[C@]2(C)C(c3ccc(Cl)nc3)=CC[C@@H]12 | 3.95 |
| CC(C)[C@H](N)C(=O)N[C@H](C(=O)O[C@H]1CC[C@@]2(C)C(=CC[C@@H]3[C@@H]2CC[C@]2(C)C(O)=CC[C@@H]32)C1)C(C)C | 4.63 |

Now look at this entry.
Tested on B16, the item CC(=O)O[C@H]1CC[C@@]2(C)C(=CC[C@@H]3[C@@H]2CC[C@]2(C)C(c4cccnc4)=CC[C@@H]32)C1 [ABIRATERONE ACETATE] showed pIC50 equal to 4.54
